The origin of these recorded values is patent US20030068675.

ASSAYED_TARGET: T1, ZFP SBS#1077 (synthetic)
T1 chain: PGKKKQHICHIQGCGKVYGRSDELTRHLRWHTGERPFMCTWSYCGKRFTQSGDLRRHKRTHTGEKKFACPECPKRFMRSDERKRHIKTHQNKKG
RUN_DESCRIPTION: EMSA
MEASUREMENT_PARAMETERS: tags: MBP fusion
REPORTED_ENDPOINT: Kd (nM)

[[record]]
binder = "GCGGCAGCG (dsDNA) DNA 1: GCGGCAGCG DNA 2: CGCTGCCGC"
unit_descriptor = "nM"
measured = 6.2

